- Tested target: human NK1 receptor (Homo sapiens (Human))
- Sequence (P25103 whole entry): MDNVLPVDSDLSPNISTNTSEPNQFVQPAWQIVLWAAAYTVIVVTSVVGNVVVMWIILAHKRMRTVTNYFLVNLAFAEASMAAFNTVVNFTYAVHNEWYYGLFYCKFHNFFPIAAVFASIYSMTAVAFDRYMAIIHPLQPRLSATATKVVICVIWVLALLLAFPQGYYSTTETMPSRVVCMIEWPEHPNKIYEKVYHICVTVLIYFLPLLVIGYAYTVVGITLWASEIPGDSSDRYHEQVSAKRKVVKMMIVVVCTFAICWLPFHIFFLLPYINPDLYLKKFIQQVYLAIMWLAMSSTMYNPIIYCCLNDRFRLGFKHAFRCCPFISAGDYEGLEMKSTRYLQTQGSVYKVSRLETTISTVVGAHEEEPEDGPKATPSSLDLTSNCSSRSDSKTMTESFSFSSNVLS
- Test: Affinity for human NK1 receptor (125I-substance P receptor binding test, membrane fraction)
- Cond: membrane fraction of human NK1 receptor-expressing 293T cells; read-out: IC50 (nM), concentration required for 50% inhibition of 125I-substance P binding
Decide using IC50 alone. Strictly below 2 nM: rule met. Equal to or above 2 nM: rule not met.

Please review the following examples before continuing.
[[record]]
compound = "Cc1cc(F)ccc1-c1cc(C2CCCC(CC(=O)O)C2)ncc1N(C)C(=O)C(C)(C)c1cc(C(F)(F)F)cc(C(F)(F)F)c1 (stereo not drawn)"
tested_target = "human NK1 receptor (Homo sapiens (Human))"
qualitative_label = "rule not met"

[[record]]
compound = "Cc1cc(F)ccc1-c1cc(C2CCC3(CC2)CC3C(=O)O)ncc1N(C)C(=O)C(C)(C)c1cc(C(F)(F)F)cc(C(F)(F)F)c1 (stereo not drawn)"
tested_target = "human NK1 receptor (Homo sapiens (Human))"
qualitative_label = "rule met"

[[record]]
compound = "Cc1cc(F)ccc1-c1cc([C@H]2CC[C@@H](C(C)(C)C(=O)O)CC2)ncc1N(C)C(=O)C(C)(C)c1cc(C(F)(F)F)cc(C(F)(F)F)c1"
tested_target = "human NK1 receptor (Homo sapiens (Human))"
qualitative_label = "rule not met"

[[record]]
compound = "Cc1cc(F)ccc1-c1cc([C@H]2CC[C@H](C(C)(C)C(=O)O)CC2)ncc1N(C)C(=O)C(C)(C)c1cc(C(F)(F)F)cc(C(F)(F)F)c1"
tested_target = "human NK1 receptor (Homo sapiens (Human))"
qualitative_label = "rule not met"

[[record]]
compound = "Cc1cc(F)ccc1-c1cc(C2CCC(CC(=O)O)CC2)ncc1N(C)C(=O)C(C)(CO)c1cc(C(F)(F)F)cc(C(F)(F)F)c1 (stereo not drawn)"
tested_target = "human NK1 receptor (Homo sapiens (Human))"
qualitative_label = "rule met"


Please examine the following record next.
Quick check: IC50 of Cc1ccccc1-c1cc(C2CCC(CC(=O)O)CC2)ncc1N(C)C(=O)C(C)(C)c1cc(C(F)(F)F)cc(C(F)(F)F)c1 (stereo not drawn) under 2 nM?
rule not met
